Test system: T-47D breast
assay_text: NCI-60 one-dose screen, 48 h (100 = growth as untreated, 0 = no growth, -100 = all killed)
condition_label: 10 µM
Compounds without any hit were thinned out: in the full panel of roughly 83,000, 20% have a hit.
property_name: growth (%)

- COc1cc(C(=O)/C=C/c2c[nH]c3ccccc23)cc(OC)c1OC: 63.2
- O=C(c1ccccc1)N(C(=O)c1ccccc1)N1CCCC1: 99.9
- COc1ccc([C@H]2[C@H](C(=O)Nc3cccnc3)c3ccccc3C(=O)N2c2ccccc2)cc1: 74
- c1cncc(-c2csc(-c3c[nH]c4ccccc34)n2)c1: 64.1
- O=C(CCCNC(=O)c1nc(-c2ccccc2)n(-c2ccccc2)n1)NO: 94
- CC(=O)OC1CC2C(C)(C)CCC[C@]2(C)C2=C1C(O)=C(C(C)C)C(=O)C2=O (stereo partly specified): 0.0935
